Assay: T. gondii ME49Luc in HeLa cells, luciferase assay, 72 h, no IFN-y (AID 1259421)
Conditions: concentration not given here
Screen size: about 6,400 compounds; about 610 (9.5%) were called active. Rule as the data show it: active = activity change below about -70%; inconclusive = no clear call, values can overlap the other calls; inactive = above that. Shown is part of a subset that was picked to be rich in actives.
Write down one outcome, taken from active, inactive

Solved entries (count: 5):
Fc1ccc(-n2cc(CCCCN3CCC4(CC3)OCc3ccccc34)c3ccccc32)cc1    active
CCOC(=O)[C@H](CCc1ccccc1)N[C@H]1CCCN2CCC[C@H](C(=O)O)N2C1=O    inactive
Nc1ncnc2c1ncn2CCOCP(=O)(O)O    inactive
C[n+]1cccc(C(=O)O)c1    inactive
C[C@@H]1CC2C3CCC4=CC(=O)C=C[C@]4(C)[C@@]3(F)[C@@H](O)C[C@]2(C)[C@@]1(O)C(=O)CO (some centres not stated)    inactive

Dear colleague, could you share the recorded outcome for CC1CCC(NC(=O)N(CCCl)[NH2+][O-])CC1 (configuration not stated) when you have a moment?
inactive

Dear colleague, could you share the recorded outcome for CCCCC[C@H](O)/C=C/C=C\C/C=C\C/C=C\CCCC(=O)O when you have a moment?
inactive

Dear colleague, could you share the recorded outcome for COC(=O)C1[C@H]2C[C@H]3c4[nH]c5ccccc5c4CCN3C[C@@H]2CC[C@@H]1O (some centres not stated) when you have a moment?
inactive

Dear colleague, could you share the recorded outcome for CC(=C(CCOP(=O)(O)O)SC(=O)c1ccccc1)N(C=O)Cc1cnc(C)nc1N when you have a moment?
inactive
